B1: library; a variant is named by its letters at N, in order (parent)
chain: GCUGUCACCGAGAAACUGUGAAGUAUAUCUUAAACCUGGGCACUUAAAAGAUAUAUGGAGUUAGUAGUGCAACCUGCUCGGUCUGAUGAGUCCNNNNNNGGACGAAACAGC

# Variants of: B1
# PROCEDURE SUMMARY: normalized RNA/DNA level without ligand (relative to sTRSVctl = 100) (log10 (% of sTRSVctl)); HEK293T; ligand: cyclic di-GMP (c-di-GMP-II aptamer); higher = less ribozyme self-cleavage, higher mRNA level
# CONDITION PARAMETERS: reporter: mCherry (pCS4076), ligand present: no
MEASUREMENT NAME: normalized RNA/DNA level without ligand (log10)

Below are worked cases with known answers.
variant=GCGGAC reported_measurement=1.33
variant=ACCCCA reported_measurement=1.74
variant=UUCCCU reported_measurement=1.77
variant=CUUGGU reported_measurement=1.76
variant=CCACCG reported_measurement=1.74
variant=GACACU reported_measurement=1.71
variant=AUCGCU reported_measurement=1.7
variant=GUACCU reported_measurement=1.73
variant=CUGCGA reported_measurement=1.65
variant=GAUCGA reported_measurement=1.64

The value of normalized RNA/DNA level without ligand (log10) measured for the variant AUGGUG turned out to be 1.56

The value of normalized RNA/DNA level without ligand (log10) measured for the variant AGUCUC turned out to be 1.76

The value of normalized RNA/DNA level without ligand (log10) measured for the variant CGAGGU turned out to be 1.72

The value of normalized RNA/DNA level without ligand (log10) measured for the variant CAUAAG turned out to be 1.71

The value of normalized RNA/DNA level without ligand (log10) measured for the variant ACGGAC turned out to be 1.52
